Entry source: PubChem BioAssay

Reported z-score values follow for various compounds
# ASSAY_PROTOCOL: forskolin-driven CRE-LacZ activity in PC12 – cell-based, CRE-LacZ reporter, forskolin-stimulated, primary screen (AID 1146);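 note: PC12 cells with 6xCRE LacZ reporter stimulated by forskolin 10 µM; beta-galactosidase reporter signal reflecting CREB driven transcription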
# PROTOCOL_CONDITIONS: luminescence, 4.5 h, higher = more signal, called active from +8 up or from −8 down
Give the value as a plain number.

As a guide, the following entries are already answered.
Lookup: Give the measured z-score of O=C1O[C@H](c2ccccc2)[C@H](c2ccccc2)N2[C@H]1[C@@H](C(=O)N1CCCCCCC1)[C@]1(C(=O)Nc3ccc(C#CC4=CCCCC4)cc31)[C@H]2c1ccc(O)cc1 .
Found: -0.464

Lookup: Give the measured z-score of COc1ccc(C(=O)Nc2cccc(CN3C(=O)[C@@]4(O[C@@H](CCn5cc([C@H](O)c6ccccc6)nn5)[C@H]([Si](C)(C)c5ccc(OC)cc5)[C@H]4C)c4ccccc43)c2)cc1 .
Found: 0.834

Lookup: Give the measured z-score of CCCC[C@H]1OB(O)C[C@H]2C1=C(C)Cn1c(=O)n(-c3ccccc3)c(=O)n12 .
Found: -0.251

Lookup: Give the measured z-score of COc1ccc([Si](C)(C)[C@@H]2[C@@H](CCO)O[C@]3(C(=O)N(Cc4ccccc4)c4ccc(N(C=O)c5ccccc5)cc43)[C@H]2C)cc1 .
Found: -0.336

Below: the item to evaluate.
Lookup: Give the measured z-score of O=C1C2C=CC(C(O)C3CC=CCC3)N(n3cnnc3)C2C(=O)N1Cc1ccccc1 (stereo not given) .
Found: 0.705
